- system: T1, full-length mouse Notch1 expressed on the cell surface of U-2 OS cells (mouse, UniProt Q01705 19-2531)
- T1 construct: whole, on cells; also called murine Notch1
- T1 sequence (Q01705 19-2531): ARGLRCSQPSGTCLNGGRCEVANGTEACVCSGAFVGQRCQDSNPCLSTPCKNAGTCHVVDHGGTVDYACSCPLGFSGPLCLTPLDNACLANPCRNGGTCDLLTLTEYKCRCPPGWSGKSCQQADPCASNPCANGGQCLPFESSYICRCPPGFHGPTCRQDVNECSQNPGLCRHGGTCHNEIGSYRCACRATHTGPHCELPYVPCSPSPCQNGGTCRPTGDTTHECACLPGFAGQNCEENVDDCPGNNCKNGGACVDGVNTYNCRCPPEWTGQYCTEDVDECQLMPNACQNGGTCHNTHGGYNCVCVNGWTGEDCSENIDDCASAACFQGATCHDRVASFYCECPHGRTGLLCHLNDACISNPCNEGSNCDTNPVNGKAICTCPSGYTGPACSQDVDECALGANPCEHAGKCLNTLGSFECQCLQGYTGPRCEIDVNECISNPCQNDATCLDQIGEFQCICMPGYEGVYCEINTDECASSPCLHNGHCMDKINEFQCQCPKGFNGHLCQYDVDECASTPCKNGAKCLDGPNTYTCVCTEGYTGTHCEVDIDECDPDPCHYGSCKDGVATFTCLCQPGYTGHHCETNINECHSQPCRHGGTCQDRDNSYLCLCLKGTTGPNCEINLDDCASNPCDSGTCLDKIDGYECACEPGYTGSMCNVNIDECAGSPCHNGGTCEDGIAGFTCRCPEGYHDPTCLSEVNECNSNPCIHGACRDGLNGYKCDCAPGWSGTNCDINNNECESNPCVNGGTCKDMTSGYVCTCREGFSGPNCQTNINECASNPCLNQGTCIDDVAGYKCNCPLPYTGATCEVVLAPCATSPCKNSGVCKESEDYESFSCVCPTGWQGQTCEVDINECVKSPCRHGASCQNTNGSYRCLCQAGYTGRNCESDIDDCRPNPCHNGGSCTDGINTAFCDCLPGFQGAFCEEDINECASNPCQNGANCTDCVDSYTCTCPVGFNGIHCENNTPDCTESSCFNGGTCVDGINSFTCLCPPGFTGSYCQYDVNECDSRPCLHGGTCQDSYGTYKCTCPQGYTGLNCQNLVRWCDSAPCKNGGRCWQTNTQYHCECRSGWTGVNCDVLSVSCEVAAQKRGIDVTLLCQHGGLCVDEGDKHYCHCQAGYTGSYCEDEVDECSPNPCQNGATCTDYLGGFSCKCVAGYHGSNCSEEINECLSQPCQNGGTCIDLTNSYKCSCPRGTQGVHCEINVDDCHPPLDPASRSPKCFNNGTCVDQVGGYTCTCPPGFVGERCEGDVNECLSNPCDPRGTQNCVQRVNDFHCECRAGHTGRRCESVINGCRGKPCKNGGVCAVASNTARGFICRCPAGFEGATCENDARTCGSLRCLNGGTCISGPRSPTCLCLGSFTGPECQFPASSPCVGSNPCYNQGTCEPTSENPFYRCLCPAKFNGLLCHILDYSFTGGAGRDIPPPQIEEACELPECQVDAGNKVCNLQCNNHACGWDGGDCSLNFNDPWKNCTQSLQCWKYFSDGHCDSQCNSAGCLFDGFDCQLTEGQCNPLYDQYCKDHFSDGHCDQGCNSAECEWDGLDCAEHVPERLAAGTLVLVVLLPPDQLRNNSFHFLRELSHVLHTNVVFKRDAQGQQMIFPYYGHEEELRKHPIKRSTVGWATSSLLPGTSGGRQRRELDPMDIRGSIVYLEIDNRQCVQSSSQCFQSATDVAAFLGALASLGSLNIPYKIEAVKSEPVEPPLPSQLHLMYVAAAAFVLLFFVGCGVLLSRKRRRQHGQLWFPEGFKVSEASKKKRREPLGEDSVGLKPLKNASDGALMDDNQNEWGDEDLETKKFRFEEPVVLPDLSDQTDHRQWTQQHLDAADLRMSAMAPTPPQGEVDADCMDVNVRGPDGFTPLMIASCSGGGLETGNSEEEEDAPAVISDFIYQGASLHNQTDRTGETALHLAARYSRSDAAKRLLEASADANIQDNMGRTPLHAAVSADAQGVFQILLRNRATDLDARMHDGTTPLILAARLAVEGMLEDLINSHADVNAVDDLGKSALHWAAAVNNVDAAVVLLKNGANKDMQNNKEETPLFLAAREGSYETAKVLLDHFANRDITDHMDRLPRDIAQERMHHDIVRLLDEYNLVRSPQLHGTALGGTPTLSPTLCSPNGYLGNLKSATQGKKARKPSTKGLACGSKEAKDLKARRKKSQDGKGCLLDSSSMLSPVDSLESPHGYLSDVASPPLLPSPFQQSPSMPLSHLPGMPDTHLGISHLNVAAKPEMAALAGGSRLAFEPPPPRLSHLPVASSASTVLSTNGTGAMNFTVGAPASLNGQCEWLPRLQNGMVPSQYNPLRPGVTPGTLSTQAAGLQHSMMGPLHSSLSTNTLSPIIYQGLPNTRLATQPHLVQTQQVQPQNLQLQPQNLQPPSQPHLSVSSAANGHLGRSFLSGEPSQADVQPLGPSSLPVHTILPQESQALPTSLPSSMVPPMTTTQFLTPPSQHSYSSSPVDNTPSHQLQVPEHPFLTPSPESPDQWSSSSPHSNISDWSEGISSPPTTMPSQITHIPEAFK
- experiment_summary: cell-based ELISA, U-2 OS cells expressing full-length mouse Notch1
Can you tell me EC50 for the items I'm about to list?
Numbers only, in nM.

Example results:
humanized 438 VH1.1/VL1.1 (antibody, human IgG1, V domains shown) VH: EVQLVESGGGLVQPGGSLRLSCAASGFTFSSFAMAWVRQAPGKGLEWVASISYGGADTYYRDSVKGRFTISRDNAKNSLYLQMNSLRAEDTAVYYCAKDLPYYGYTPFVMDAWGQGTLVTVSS VL: DIQLTQSPSSLSASVGDRVTITCRASQRINTDLHWYQQKPGKAPKVLIKFASQTISGVPSRFSGSGSGTDFTLTISSLQPEDFATYYCQQSNSWPYTFGQGTKLEIK	0.129
humanized 438 VH1.1/VL1.8 (antibody, human IgG1, kappa, V domains shown, full chains (VH1.1)-hIgG1-3M and (VL1.8)-hkappa) VH: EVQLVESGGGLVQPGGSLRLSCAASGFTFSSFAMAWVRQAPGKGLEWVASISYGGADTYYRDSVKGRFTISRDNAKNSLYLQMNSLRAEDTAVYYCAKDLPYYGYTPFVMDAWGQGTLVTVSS VL: DIQMTQSPSSLSASVGDRVTITCRASQRINTDLHWYQQKPGKAPKVLIKFASQTISGVPSRFSGSGSGTDFTLTISSLQPEDFATYYCQQSNSWPYTFGQGTKLEIKR	0.149
humanized 438 VH1.1/VL1.5 (antibody, human IgG1, V domains shown) VH: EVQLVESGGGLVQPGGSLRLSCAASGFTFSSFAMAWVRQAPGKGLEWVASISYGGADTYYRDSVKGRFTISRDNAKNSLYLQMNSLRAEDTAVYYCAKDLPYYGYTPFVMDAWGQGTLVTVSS VL: DIQMTQSPSSLSASVGDRVTITCRASQRINTDLHWYQQKPGKAPKLLIKFASQTISGVPSRFSGSGSGTDFTLTISSLQPEDFATYYCQQSNSWPYTFGQGTKLEIK	0.146
humanized 438 VH1.0/VL1.1 (antibody, human IgG1, V domains shown) VH: EVQLVESGGGLVQPGGSLRLSCAASGFTFSSFAMAWVRQAPGKGLEWVASISYGGADTYYRDSVKGRFTISRDNAKNSLYLQMNSLRAEDTAVYYCARDLPYYGYTPFVMDAWGQGTLVTVSS VL: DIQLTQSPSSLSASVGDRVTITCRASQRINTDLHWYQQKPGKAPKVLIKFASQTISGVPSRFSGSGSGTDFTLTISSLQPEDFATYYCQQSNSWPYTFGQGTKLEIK	0.229

Given the entry parental rat 351 (antibody, V domains shown, Rat monoclonal IgG from a hybridoma) VH: EVQLVESGGGLVQPGRSLKVSCLASGFTFSHYGMNWIRQAPGKGLDWVASISRSGSYIRYVDTVKGRFTVSRDIAKNTLYLQMTSLRSEDTALYYCAREGQFGDYFEYWGQGVMVTVSS VL: DIMLTQSPATLSVTPGERISLSCRASQKISTNLHWYQQKPNESPRILIKYASQTISGIPSRFSGSGSGTDFTLHINTVEPEDFSVYYCQQTNSWPLTFGSGTKLEIK , report its measured EC50. 0.07
